# Tested on: MCF7
# ASSAY_NAME: Cytotoxicity against human MCF7 cells assessed as reduction in cell viability by SRB assay
# Type: functional, cell-based
OBSERVED_PROPERTY: IC50 (µM)
Field: numeric (µM). Do not append units.

Suppose we examine the molecule `C=C1[C@@H](OC(C)=O)C[C@@H]2[C@](C)(CO[Si](C)(C)C(C)(C)C)[C@H](OC(C)=O)CC[C@@]2(C)[C@@H]1C[C@@H](Nc1cccc(F)c1)C1=CCOC1=O` ; what IC50 value has been reported? 3.82

Next record, please: `Cc1c2ccncc2c(C)c2c1[nH]c1ccccc12` 2.18

Further, for `C=C1CC[C@@H]2[C@](C)(CO[Si](C)(C)C(C)(C)C)[C@H](OC(C)=O)CC[C@@]2(C)[C@@H]1C/C=C1/C(=O)OC[C@H]1OC(C)=O` ? 4.84

Now this one: `C=C1[C@@H](OC(C)=O)C[C@@H]2[C@](C)(COC=O)[C@H](OC(C)=O)CC[C@@]2(C)[C@@H]1C[C@@H](Nc1ccc(O)cc1)C1=CCOC1=O` 18.1

Entry to check: `C=C1[C@@H](OC(C)=O)C[C@@H]2[C@](C)(CO[Si](C)(C)C(C)(C)C)[C@H](OC(C)=O)CC[C@@]2(C)[C@@H]1C/C=C1/C(=O)OC[C@H]1OC(C)=O` 4.54

Likewise for `C=C1[C@@H](OC(C)=O)C[C@@H]2[C@](C)(COC=O)[C@H](OC(C)=O)CC[C@@]2(C)[C@@H]1C[C@@H](Nc1ccccc1)C1=CCOC1=O` ? 26.2

Another molecule to check: `C=C1[C@@H](OC(C)=O)C[C@@H]2[C@](C)(CO[Si](C)(C)C(C)(C)C)[C@H](OC(C)=O)CC[C@@]2(C)[C@@H]1C[C@@H](Nc1ccc(F)cc1)C1=CCOC1=O` 4.34

Same lookup for `C=C1[C@@H](OC(C)=O)C[C@@H]2[C@](C)(COC=O)[C@H](OC(C)=O)CC[C@@]2(C)[C@@H]1C[C@@H](Nc1cccc2ccccc12)C1=CCOC1=O` , please. 9.75

Then this molecule: `C=C1[C@@H](OC(C)=O)C[C@@H]2[C@](C)(COC=O)[C@H](OC(C)=O)CC[C@@]2(C)[C@@H]1C[C@@H](Nc1cccc(F)c1)C1=CCOC1=O` 14.1

Next molecule up: `C=C1[C@@H](OC(C)=O)C[C@@H]2[C@](C)(COC=O)[C@H](OC(C)=O)CC[C@@]2(C)[C@@H]1C[C@@H](Nc1ccc(Br)cc1)C1=CCOC1=O` 11.4

Try the molecule `C=C1[C@@H](OC(C)=O)C[C@@H]2[C@](C)(CO[Si](C)(C)C(C)(C)C)[C@H](OC(C)=O)CC[C@@]2(C)[C@@H]1C[C@@H](Nc1ccc(O)cc1)C1=CCOC1=O` 5.22

Check `C=C1[C@@H](OC(C)=O)C[C@@H]2[C@](C)(COC=O)[C@H](OC(C)=O)CC[C@@]2(C)[C@@H]1C[C@@H](Nc1ccc(C(=O)O)cc1)C1=CCOC1=O` too. 41.6

Now the same for `C=C1[C@@H](OC(C)=O)C[C@@H]2[C@](C)(CO[Si](C)(C)C(C)(C)C)[C@H](OC(C)=O)CC[C@@]2(C)[C@@H]1C[C@@H](Nc1cccc2ccccc12)C1=CCOC1=O` 5.77

// repeat for `C=C1[C@@H](OC(C)=O)C[C@@H]2[C@](C)(CO[Si](C)(C)C(C)(C)C)[C@H](OC(C)=O)CC[C@@]2(C)[C@@H]1C[C@@H](Nc1ccc(Br)cc1)C1=CCOC1=O` and report 3.92

Please give the result for `C=C1[C@@H](OC(C)=O)C[C@@H]2[C@](C)(CO[Si](C)(C)C(C)(C)C)[C@H](OC(C)=O)CC[C@@]2(C)[C@@H]1C[C@@H](Nc1ccccc1C(=O)O)C1=CCOC1=O` too. 4.46

Also check `C=C1[C@@H](OC(C)=O)C[C@@H]2[C@](C)(COC=O)[C@H](OC(C)=O)CC[C@@]2(C)[C@@H]1C[C@@H](Nc1ccc(F)cc1)C1=CCOC1=O` 12.4

Please give the result for `C=C1[C@@H](C/C=C2/C(=O)OC[C@H]2OC(C)=O)[C@]2(C)CC[C@@H](OC(C)=O)[C@@](C)(CO[Si](C)(C)C(C)(C)C)[C@H]2C[C@@H]1O` too. 6.96

Then this molecule: `C=C1[C@@H](OC(C)=O)C[C@@H]2[C@](C)(CO[Si](C)(C)C(C)(C)C)[C@H](OC(C)=O)CC[C@@]2(C)[C@@H]1C[C@@H](Nc1ccc(C(=O)O)cc1)C1=CCOC1=O` 3.99

Okay, and `C=C1[C@@H](OC(C)=O)C[C@@H]2[C@](C)(COC=O)[C@H](OC(C)=O)CC[C@@]2(C)[C@@H]1C[C@H](C1=CCOC1=O)N1CCOCC1` ? 43.6

Another molecule to look at: `C=C1[C@@H](OC(C)=O)C[C@@H]2[C@](C)(COC=O)[C@H](OC(C)=O)CC[C@@]2(C)[C@@H]1C/C=C1/C(=O)OC[C@H]1OC(C)=O` 12.9

Another: `C=C1[C@@H](OC(C)=O)C[C@@H]2[C@](C)(COC=O)[C@H](OC(C)=O)CC[C@@]2(C)[C@@H]1C[C@@H](Nc1ccccc1F)C1=CCOC1=O` 16.4

Try this molecule next: `C=C1[C@@H](OC(C)=O)C[C@@H]2[C@](C)(COC=O)[C@H](OC(C)=O)CC[C@@]2(C)[C@@H]1C[C@@H](Nc1ccc(OC)cc1)C1=CCOC1=O` 24.2
